Measured Kd accompanies every entry in the list below.
target: T1, extracellular domain of rhesus monkey BCMA (rhesus monkey, UniProt F7FFA0 1-53); experiment: Octet BLI; Fab 200 nM
T1 construct: extracellular domain; also called RhBCMA
T1 sequence (F7FFA0 entry or part of it): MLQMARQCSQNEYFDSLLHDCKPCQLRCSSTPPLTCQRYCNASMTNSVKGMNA
Expressed in nM, but write only the number.

Reference set (4 entries):
binder	valueUnit	Kd
AB200-R1H32-R2Vk5 (Fab, V domains shown) VH: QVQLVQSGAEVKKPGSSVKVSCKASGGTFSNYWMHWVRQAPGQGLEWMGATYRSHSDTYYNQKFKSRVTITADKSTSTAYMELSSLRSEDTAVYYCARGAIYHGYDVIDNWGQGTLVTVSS VL: DIQMTQSPSSLSASVGDRVTITCRASQSISSYLNWYQQKPGKAPKLLIYATSNLQIGVPSRFSGSGSGTDFTLTISSLQPEDFATYYCQQFRKLPWSFGQGTKLEIKR	nM	5.66
AB200-R1H32-R2Vk29 (Fab, V domains shown) VH: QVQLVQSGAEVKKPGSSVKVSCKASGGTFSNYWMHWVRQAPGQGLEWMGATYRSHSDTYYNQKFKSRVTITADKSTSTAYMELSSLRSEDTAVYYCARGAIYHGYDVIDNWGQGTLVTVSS VL: DIQMTQSPSSLSASVGDRVTITCRASQSISSYLNWYQQKPGKAPKLLIYATSNLQIGVPSRFSGSGSGTDFTLTISSLQPEDFATYYCQQYRRLPWSFGQGTKLEIKR	nM	3.69
AB200-R1H32-R2Vk33 (Fab, V domains shown) VH: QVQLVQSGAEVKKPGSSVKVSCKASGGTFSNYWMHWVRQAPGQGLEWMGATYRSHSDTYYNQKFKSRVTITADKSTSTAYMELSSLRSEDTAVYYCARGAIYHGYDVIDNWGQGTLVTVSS VL: DIQMTQSPSSLSASVGDRVTITCRASQSISSYLNWYQQKPGKAPKLLIYATSNLQIGVPSRFSGSGSGTDFTLTISSLQPEDFATYYCQQFRKIPWTFGQGTKLEIKR	nM	4.29
AB200-R1H32-R2Vk39 (Fab, V domains shown) VH: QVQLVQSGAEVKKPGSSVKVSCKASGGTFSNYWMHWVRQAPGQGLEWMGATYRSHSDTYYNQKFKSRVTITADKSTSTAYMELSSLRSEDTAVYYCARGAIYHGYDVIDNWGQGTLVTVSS VL: DIQMTQSPSSLSASVGDRVTITCRASQSISSYINWYQQKPGKAPKLLIYATSNIQSGVPSRFSGSGSGTDFTLTISSLQPEDFATYYCQQYRRLPWSFGQGTKLEIKR	nM	4.76

Query: Looking for the measured Kd of AB200-R1H32-R2Vk6 (Fab, V domains shown) VH: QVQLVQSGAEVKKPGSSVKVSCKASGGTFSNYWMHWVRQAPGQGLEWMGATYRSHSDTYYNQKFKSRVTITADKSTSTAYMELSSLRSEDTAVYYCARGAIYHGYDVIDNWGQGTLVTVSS VL: DIQMTQSPSSLSASVGDRVTITCRASQSISSYINWYQQKPGKAPKLLIYATSNLQSGVPSRFSGSGSGTDFTLTISSLQPEDFATYYCQQFRKLPWSFGQGTKLEIKR , can you help?
Reply: 4.63

Hello, the source for this data is patent US20240327535A1, in case you need it.
